Reference for the values: ChEMBL document CHEMBL1201862

Kindly supply the reported GI50 values for the records listed here.
# Tested on: NCI-H460
# assay-overview: NCI tumour cell line growth inhibition, 48 h
The source made the active and inactive calls. Cut-off read from the data, not from the text of the source: active = GI50 up to about 1.1 µM and inactive = higher.

For NCI-H460, provide GI50 of O=c1[nH]c(=O)n(C2OC(CO)C(O)C(O)C2O)cc1F (stereo not given) please.
> 100 µM (inactive)

Next: O=C1C2CC[C@@H]3C(=O)C(Cl)(Cl)[C@@H]3CCC2C1(Cl)Cl (stereo not given in full)
> 100 µM (inactive)

Next: COc1ccc2c(c1)CCCC1C3=NCCC3(C)CSC21 (stereo not given)
74 µM (inactive)

Next: COC(=O)c1ccc2c(c1)CC1(C2)Cc2cc3c(cc2C1=O)CCC3 (stereo not given)
37.2 µM (inactive)

Next: CCOC(=O)C(C(N)=O)C1=Nc2cc([N+](=O)[O-])ccc2N/C1=C\C(=O)c1ccc(C)cc1 (stereo not given)
22.2 µM (inactive)

Next: COc1c2c(cc3c1C1(O)Cc4ccc5c(c4C[N+]1(C)CC3)OCO5)OCO2 (stereo not given)
88.1 µM (inactive)

Next: c1ccc(/N=C2\SC(=NNc3ccccc3)S\C2=N/c2ccccc2)cc1
15.5 µM (inactive)

Next: Cc1cc(OC(=O)NCn2cc(-c3ccccc3)nn2)ccc1Cl
67.6 µM (inactive)

Next: O=[N+]([O-])c1ccc2c(/N=N/c3ccc4ccccc4c3O)c(O)cc(S(=O)(=O)O)c2c1
38.5 µM (inactive)

Next: COc1cccc(-c2nc(O)c3ccccc3n2)c1OC
> 100 µM (inactive)
